Would you mind telling me the reported yeast fitness of each entry?
B1: tRNA (parent)
chain: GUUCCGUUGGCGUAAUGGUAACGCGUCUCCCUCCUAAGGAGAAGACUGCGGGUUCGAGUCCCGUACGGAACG

Variants of: B1
Assay: yeast fitness relative to wild type (ratio to wild type); higher = fitter; tRNA-Arg(CCU), competitive growth, 37 C, YPD
Variants at the floor of the assay were thinned out.

Consider the variant GUUCCGUUGGCGUAUUGGUACCGGGUCUUCCUCCUAAGGAGCAGACUGCGGGUUCGAGGCCCGUACCGAACG and give its measured yeast fitness. ≤ 0.5

Requested field: yeast fitness. Item: GAUCCGUUGGGGUAAUGGUAACGCGUCUCACUCCUAAGGAGAAUACUGCGGGUUCGGGUCCCGUACGGAACG ≤ 0.5

Reported yeast fitness for GAUCCGUUGGCGUAAUGGUUACGCGUCUCCCUCAUAAGGAGAAGACUGCGGGUUCGAGUCUCGUACGGAACG : what is it? ≤ 0.5

For GGUCCGUUGGCGUAAUGGUAACGCGUCUCCCUCCUUAGGAGAAGAGUGCGGGUUCGAGUCCAGUACGGCACG , what is its reported yeast fitness? ≤ 0.5

# lookup: yeast fitness of GUUCCGUUGGCGUAAUAGUAAAGCAUCUCCCUCCUAAGGAGAAGACUGCGGGUUCGAGUCCCGUACGGAACG 0.501

Look up yeast fitness for this variant: GUUCCGUUGGUGUAAUGGUAACGCGUCUCCCUCCUAAGGAGAAGACUGCGGGUUCGAGUCCCGUAGGGAACG 0.745

Please look up its yeast fitness: GUUCCGUUGGCGUAAUGGUAACGCGUCUCGCUCCUAAGGGGAAGACUGUGGGUUCGAGUCCCGUACGGAACG ≤ 0.5

Look up yeast fitness for this variant: GUUCCGUUGGCGUACUGGUAACGGGUCUCCCUCCUACGGAGAAGACUGCGGGUUCGAGUUCCGUACGGAACG ≤ 0.5

Returns the measured yeast fitness for the input variant. Input: GUUCCGUUGGCGUAAUGGUAACGCGGCUCCCUCCUAAGGAGCAGACCGCGGGUUCGAGUCCCGUACGGAACG 0.816

Find the recorded yeast fitness belonging to GUUCUGUUGGCGUAAUGGUAACGCGUCUCCCGGCUAAGGAGAAGACUGCGGGUUCGAGUCCCGUACGGAACG and report it. ≤ 0.5

# input variant: GUUCCGUUGGCGUAAUGGUAACGCGUCUCCCGCUUAAGGAGAAGACUGCGGGUUCGGGUCCCGUACGGAACG ; wanted: its yeast fitness 0.561

Please look up its yeast fitness: GUUCCGUUGGUGUAAUGGUAACGCGUCUCCCUCCUAAGCAGAAGAUUGCGGGUUCGAGUCCCGUACGGAACG 0.756

Look up yeast fitness: GUUCCGUUGGCGUAAUGGUAACGCGUCUCCCCCUUAAGGAGAAGACUGCGGGAUCGAGUCCCGUAUGGAACG ≤ 0.5

Field request: yeast fitness | item: GUUCCGUUGGCGUAAUGGUAAUGCGUUUCCCUCCUAAGGAGAAGACUGCGGGUUCGAGUCCCGUACGGACCG 0.599

What measured yeast fitness goes with GUUCCGUUGAUGUAAUGGUAAUGCGUCUCCCUCCUAAGGAGAAGACUGCGGGUUCGUGUCCCGUACGGAACG ? ≤ 0.5

I'd like to know its yeast fitness. The variant in question is GUUCCGUUGCCGUAAUGGUAACGCGUCUCCCUCCGAAGGAGAAGACUGCGGGUUCGAGUCCCGUACGGAACG ≤ 0.5

Would you kindly share the measured yeast fitness for GUUCCGUUGGCGUAAUGGUAACGCGUCACCCCCCUAAGGAGAAGACUGGGGAUUCGAGUCCCGUACGGAACG ? ≤ 0.5

Bench note: what yeast fitness did GUUCCGUUGGGGUAAUGGUAACGCGUCUCCCUCCUCAUGAGAAGACUGCGGGUUCAAGUCCCGUACGGAACG show? ≤ 0.5

Return reported yeast fitness; argument: GUUCCGUUGGCGUAAUGGUAACGCGUCUCCCUCCUACGCAGAAGACUGCGGGUUCGAGUCCCGUACGGAACG 0.534

Fill in: yeast fitness of GUUCGGUUCGCGUAAUGGUAACGCGUCUCCCUCCUAAGGCGAAGACUGCGGGUUCGAAUCCCGUACGGAACG is ___ ≤ 0.5

What does the record list as yeast fitness for GUUCCAUUGGAGUAAUGGUAACGCGUCUCCCUCCUAAGGGGAAGACUGCGGGUUCCAGUCCCGUCCAGAACG ? ≤ 0.5

Param item = GUUUCGUUGGCGUAAUGGUAACGCGUCUCCCUUCUAAGGAGAAAACUGCGGGUUCGAGUCCCGUACGGAACG ; retrieve measured yeast fitness. ≤ 0.5

May I ask what yeast fitness has been recorded for GUUCCGUUCGCGAAAUGGUAACGCGUCUCCCUCCUAAGGAAAAGACUGCGGGUUCGAGUCCUGUACGGAACG ? ≤ 0.5

Can you share its yeast fitness? I mean this variant: GUUCCGUUGGCGUAAUGGUAACGCGUUUCCCUCCUAAGGACAAGACUGCGGGUUCGAGUCGCGUACGGAACG ≤ 0.5

I would be grateful if you could share the reported yeast fitness for GUUCCGUUGGCGUAAUGGUUACGCGUCUCCCUCCUAAGGAGAGGACUGCGGGUUCGAGUCCCGUACGGAUCG . 0.661

Quick check: yeast fitness of GUUCCGCUGGCGUAAUGGUAACGCGUCUCCCUCCUAAGGAGAAGACUGCGGGUUCGAGUCCCGUUCGGCACG ? 0.532

Which yeast fitness reading was recorded for the variant GUUCCGUUGGCGUCAUGGUAACGCCUCUCCCUCCUAAGGAGAAGACAGCGGGUUCGAGUCCCCUACGGAACG ? 0.678

Given the variant GUUCCGUUGGCGUAAUGGUAACGCGUCGCCCUCCUAAGGUGAAGACUGCGGGUUCGAGCCCCGUACGGAACG , what is its reported yeast fitness? 0.576

I'd like to know its yeast fitness. The variant in question is GUUCGGUUGGCCUAAUGAUAACGUGUCUUCCUCCUGAGGAGAAGACUGCGGGUUCGAGUCCCGUACGGCACG ≤ 0.5

Give its yeast fitness value. Item: GUUACGUUGGCGUAAUAGCAACGCGUCUCCCUCCUAAGGAAAAGACUGCGGGUUCGAGUCCCGUAUGGAACG ≤ 0.5

Please give the measured yeast fitness for this variant: GUUCCGUUGGCAUAAUGGUAACGCGCUUCCCUACUAAGGAGAAGCCUGCGGGUUCGAGUCCGGUACGGUACG 0.553

Looking for the measured yeast fitness of GUUCCGUUGGCGUAAUGGUAACGGGUCUAUCUCCUAAGGAGAAGACUGCAGGUUCGAGUCCUGUACGGAACG , can you help? ≤ 0.5

Can you look up the measured yeast fitness of GUUCCGUUGGCGUAAUGGUAACGCGUCUCCCUCCUAAGGAGUAGAGUGCGGCUUCGAGUCCAGUACGGAACG for me? ≤ 0.5

Request the reported yeast fitness associated with GUUCCGUUGGCGUAAUGGUAACGGGUCUCUCUCCUAAGGAGAAGACUGCGGGUUCGAGUCGCGUACGGAACG ≤ 0.5

Give its yeast fitness value. Item: GUUCCGUUGGCGUAAUGGUAACGCGUCUCCCUCCUAAGGGGAAGACUGCGAGUUUGAGUCCCGUACGGAACG 0.556

I would be grateful if you could share the reported yeast fitness for GUUCCGUUGGCGUAAUGGUAACGCGUCUCCCUCCUAAGACGAAGACUGCGGGUUCGAGUUCCGUACGUAACG . ≤ 0.5

Please give the measured yeast fitness for this variant: GUUCCGUUGGGGUAAUGGUAACGCGUCUCCCUCCUAAGGAGUAGACUGCGGGUUCGAGUCCCGUACGGAACG 0.608

Query: yeast fitness; subject: GUUCGGUUGGCGUAAUGGUAACGCGUCUCCCUCCUAAGGAGAAGUCUGCGGGUUCGAGUCCUGUACGGAACG 0.725

What value of measured yeast fitness is listed for GUUCCGUUGGUAUAAUGGUAACGCGUCUCCCUCCUAAGGAGAAGACUGCGGGUUCGAGUCCCGUACGGAACG ? 0.998

Which yeast fitness value belongs to GUUCGGUUGGCGUAAUGGUAACGCGUCUCACUCCUGAGGAGAAGCCUGCGGGUUCGAGUCCCGUACGGUACG ? ≤ 0.5

Would you mind telling me what yeast fitness value was observed for GUUCCGUUGGCGUAAUGGUAACGCGUCUGCCUCCUAUGGAGAAGAUUGCGGGUUCGAGUCCCGUACGGAACG ? ≤ 0.5

If you can, please state the reported yeast fitness value of GUUCCGUUGGCGUAGUGGUAACGGGUCUCCCACCUAAGGAAAAGACUGCGGGUUCGAGUCCCGUACGGUACG . ≤ 0.5

Dear colleague, I am looking for the recorded yeast fitness of the following variant: GAGCCGUUGGCGUAAUGGUAACGCGUCUCCCUCCUUAGGAGAAGACUGCGGGUUCGAGUCCCGUACGGAACG ≤ 0.5

# get_value(readout='yeast fitness', item= GUUCCGUUGGCCUAAUGGUAACGCGUCUCUCUGCUAAGGAGAAGACGGCGGGUUCGAGUCCCGUACGGAACG ) ≤ 0.5

# get_value(readout='yeast fitness', item= GUUCAGUUGGCGUAAUGGUAACGCGUCUCACUCCUAAGGAGAAGACUGCGAGUUCGAGUCCCGUACGGAACG ) ≤ 0.5

Recorded yeast fitness for GUUCCCUUGGUGUAAUGGUAACGCGUCUCCCUCCUAAGGAGAAGACUGCGGGUUCCAGUCCCGUACGGCACG , please? ≤ 0.5

Form field: reported yeast fitness of GUUCCGUUGCCGUAAUGGUAACGCCUCUCCCUCCUAACGGGGAGACUGCGGGUUCGAGUCCCGAACGAAACG 0.515

What measured yeast fitness goes with GUUCCGUUGGCGUAAUGGUAACGCGUCUCCCUCCUAAGGACAAGACUGAGGGUUCGAGUCCCGUACGGAACG ? 0.572

Entry under review: GUUCCGUUGGCGUAAUGGUAACGCCUCUCCCUCCUAACGAGAAGACUGUGGGUUCGUGUCCCGUAAGGAACG . Reported yeast fitness? 0.571

Would you kindly share the measured yeast fitness for GUUCCGUAGGCGUAAUGGUAAUGCGUCUCCCUCCUAAGGAGAAGACUGCGGGUUCAAGACCCGUACGGAACG ? ≤ 0.5

Could you tell me which yeast fitness is on file for GUUCCGUUGGCGUAAUGGUAACGCGUCUCCCUACUAAGGGGAAGACUGCGGGUUCGAGUCCCGUACGGAACG ? 0.683

Request the reported yeast fitness associated with GUCCCGUUGGCGUAAUGGUAACGCGUCUCCCUCCUAAGGAGAAGACUGCGGGUUAGAGUACCGUACGGAACG ≤ 0.5

Dear colleague, I am looking for the recorded yeast fitness of the following variant: GUUCCGUUAGCGUAAUGGUAACGCGUCUCCCUCCUAAGGAGAAGACUGCGGGUUCGAGUCCCGUACGAAACG 0.864

Any idea what yeast fitness was measured for GUUCCGUUGGAGUAAUGGUAACGCGUCUCCCUCCUAAAGAGAAGACUGCGGGAUCGAGUCCCAUACGAAACG ? 0.635

Request the reported yeast fitness associated with GUUGCGUCGGCGUAAUGGUAACGCGUCUCCCUCGUAAGGAGAAGACAGAGGGUUCGAGUCCCGUGCGGAACG ≤ 0.5

I'd like to know its yeast fitness. The variant in question is GUUCCGUUGGAGUAAUGGUAACGUGUCUCCCUCAUAUGGAGAAGACUGCGGGUUCGAGUCCCGUACGGAACG ≤ 0.5

Entry GUUCUGUUGGCGUAAUGGUAACGCGUCGCGCUCCUAAGGCGUAGACUGCGGGUUCGAGUCCCGUACGGAACG has what yeast fitness? ≤ 0.5

Record request: yeast fitness value, item GUACCGUUGGCGUAACGGUAACGCGUCUCCCUGCUAAGGAGAAGACUGCGGGUUCGAGUCCCGUAGGGAACG 0.664

What does the data say about its yeast fitness? Entry: GUUCCGUAGGCGUAAUGGUAACGCGUCUCCCUCCUAAGGAGAACACUGCGGGUUCGUGUCCCGUACGGAACG ≤ 0.5

GET /values?readout=yeast fitness&item= GUCCCGUUGGCGUAAUCGUAACGCGUCUCCCUCCUAAGGAGAAGACUGCGGGUUCGAGUCCCGUACGGAACG 0.78

Name the recorded yeast fitness for GUUCCGUUAGGGUAAUGGUAACGCGUCUCCCUCCUAAGGAGAAGACUGCAAGUUCGAGUCCCGUACGGAACG . ≤ 0.5

Quick one: yeast fitness for GUUCCGUUGGCGUAAUGGUAAUGCGUCUCCCUCCUAAGGAGGAGACUGCGGGCUGGAGUCCCGUACGGAUCG ? ≤ 0.5
